Where do the numbers come from? From patent US8853246B2.

Tested on: Green Peach Aphid (Myzus Persicae)
Experiment summary: Insecticidal test for green peach aphid in foliar spray assay (col. MYZUPE)
Format: in vivo
Measurement conditions: green peach aphid
Measured attribute: MYZUPE 200 ppm (Corrected % Control, rating)

Below, 5 compounds whose answers are already recorded.
| Compound | Result |
| --- | --- |
| CCN(C(=O)C(C)CS(C)(=O)=O)c1sc(-c2cccnc2)nc1C (centres unmarked) | A (80-100) |
| Cc1nc(-c2cccnc2)sc1N(C)C(=O)c1ccc([S+](C)[O-])cc1 (centres unmarked) | A (80-100) |
| CCN(C(=O)C(C)CS(C)(=O)=O)c1sc(-c2cncc(F)c2)nc1C (centres unmarked) | A (80-100) |
| Cc1nc(C)n(CC(C)C(=O)N(C)c2sc(-c3cccnc3)nc2Cl)n1 (centres unmarked) | A (80-100) |
| CCN(C(=O)CCS(C)(=O)=O)c1sc(-c2cncc(F)c2)nc1C | A (80-100) |

Looking up Cc1nc(-c2cccnc2)sc1N(C)C(=O)c1ccns1 , I found its MYZUPE 200 ppm (Corrected % Control, rating) recorded as A (80-100)

// recorded MYZUPE 200 ppm (Corrected % Control, rating) for CSCc1ccc(C(=O)N(C)c2sc(-c3cccnc3)nc2Cl)o1 : A (80-100)

Notebook: Cc1nc(-c2cccnc2)sc1N(C)C(=O)c1ccc(=O)n(C)n1 , MYZUPE 200 ppm (Corrected % Control, rating) read as A (80-100)

So for CN(C(=O)c1ccoc1)c1sc(-c2cccnc2)nc1Cl , the logged MYZUPE 200 ppm (Corrected % Control, rating) turned out to be A (80-100)

Item: CN(C(=O)C1CCOC1)c1sc(-c2cccnc2)nc1Cl (centres unmarked) | MYZUPE 200 ppm (Corrected % Control, rating): A (80-100)

Briefly, MYZUPE 200 ppm (Corrected % Control, rating) measured for CCN(C(=O)C(C)(C)CS(C)(=O)=O)c1sc(-c2cncc(F)c2)nc1C : A (80-100)

MYZUPE 200 ppm (Corrected % Control, rating) recorded for this compound, CC(=O)OC(C)C(=O)N(C)c1sc(-c2cccnc2)nc1C (centres unmarked) , is A (80-100)

Value of MYZUPE 200 ppm (Corrected % Control, rating) reported for the compound CCN(C(=O)CCS(C)(=O)=O)c1sc(-c2cccnc2)nc1C is A (80-100)

Just so you know, measured MYZUPE 200 ppm (Corrected % Control, rating) for CN(C(=O)c1cscn1)c1sc(-c2cccnc2)nc1Cl came out at B (Less than 80)
